B1: EEHEE_rd3_0130 (parent)
chain: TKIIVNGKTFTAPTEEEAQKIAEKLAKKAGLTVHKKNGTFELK

Variants of: B1
Assay Overview: folding stability dG (cDNA display proteolysis); higher = more stable
Measurement Context: PBS, room temperature
Rule: criterion met for folding stability dG not less than 0.7 kcal/mol, criterion not met for anything less.

IN: hey, is folding stability dG for this one >= 0.7 kcal/mol? "TKIIVNGKTFTAPTEEEAQKIAEKLAKKAGLTVHKKTGTFELK"
OUT: criterion not met

IN: hey, is folding stability dG for this one >= 0.7 kcal/mol? "TKIIVNGKTFTAPTEEEAQKIAEKLAKKAGLTVHKGNGTFELK"
OUT: criterion not met

IN: hey, is folding stability dG for this one >= 0.7 kcal/mol? "TKIIVNGKTFTAPTEEEAEKIAEKLAKKAGLTVHKKNGTFELK"
OUT: criterion met

IN: hey, is folding stability dG for this one >= 0.7 kcal/mol? "TKIIVNGKTFTAPTEEEAQKMAEKLAKKAGLTVHKKNGTFELK"
OUT: criterion not met

IN: hey, is folding stability dG for this one >= 0.7 kcal/mol? "TKIIVNGKTFTAPTMEEAQKIAEKLAKKAGLTVHKKNGTFELK"
OUT: criterion met

IN: hey, is folding stability dG for this one >= 0.7 kcal/mol? "TKIIVNGKTFTAPGEEEAQKIAEKLAKKAGLTVHKKNGTFELK"
OUT: criterion not met

IN: hey, is folding stability dG for this one >= 0.7 kcal/mol? "TKIIVNGKTFTDPTEEEAQKIAEKLAKKAGLTVHKKNGTFELK"
OUT: criterion not met

IN: hey, is folding stability dG for this one >= 0.7 kcal/mol? "TKIIVNMKTFTAPTEEEAQKIAEKLAKKAGLTVHKKNGTFELK"
OUT: criterion not met

IN: hey, is folding stability dG for this one >= 0.7 kcal/mol? "TKIICNGKTFTAPTEEEAQKIAEKLAKKAGLTVHKKNGTFELK"
OUT: criterion met

IN: hey, is folding stability dG for this one >= 0.7 kcal/mol? "TKIHVNGKTFTAPTEEEAQKIAEKLAKKAGLTVHKKNGTFELK"
OUT: criterion not met

IN: hey, is folding stability dG for this one >= 0.7 kcal/mol? "TKIIVNGKTFTAPTEEEAQVIAEKLAKKAGLTVHKKNGTFELK"
OUT: criterion met

IN: hey, is folding stability dG for this one >= 0.7 kcal/mol? "TKIIVNGKTFTAPTEEEAQKIAEKLAKKAGLTDHKKNGTFELK"
OUT: criterion not met

IN: hey, is folding stability dG for this one >= 0.7 kcal/mol? "TKIIVNGKTFTAPTEEEAQKIAEKLAKKAGLTVHKKNGTFEDK"
OUT: criterion not met

IN: hey, is folding stability dG for this one >= 0.7 kcal/mol? "TKIIVNGKTFTAPTEEEAQKIAEKLAKKAGLTVHKKNGTFELH"
OUT: criterion met

IN: hey, is folding stability dG for this one >= 0.7 kcal/mol? "SKIIVNGKTFTAPTEEEAQKIAEKLAKKAGLTVHKKNGTFELK"
OUT: criterion not met

IN: hey, is folding stability dG for this one >= 0.7 kcal/mol? "TKIIVNGKTFTAPTEEEEQKIAEKLAKKAGLTVHKKNGTFELK"
OUT: criterion not met

IN: hey, is folding stability dG for this one >= 0.7 kcal/mol? "TKIIVNGKTFTAPTEEEAQKIAEKLAKKMGLTVHKKNGTFELK"
OUT: criterion met

IN: hey, is folding stability dG for this one >= 0.7 kcal/mol? "TKIILNGKTFTAPTEEEAQKIAEKLAKKAGLTVHKKNGTFELK"
OUT: criterion met

IN: hey, is folding stability dG for this one >= 0.7 kcal/mol? "CKIIVNGKTFTAPTEEEAQKIAEKLAKKAGLTVHKKNGTFELK"
OUT: criterion met

IN: hey, is folding stability dG for this one >= 0.7 kcal/mol? "TKIIVNGKTFTAPTEEEAQKIAEKLAKKAGLTVHKKNGTFEAK"
OUT: criterion not met

IN: hey, is folding stability dG for this one >= 0.7 kcal/mol? "TKIIVNGKTFTAPTEEEAQKIAEYLAKKAGLTVHKKNGTFELK"
OUT: criterion met

IN: hey, is folding stability dG for this one >= 0.7 kcal/mol? "TKIIVNGKTFTAPTEEEAQWIAEKLAKKAGLTVHKKNGTFELK"
OUT: criterion met

IN: hey, is folding stability dG for this one >= 0.7 kcal/mol? "TKIIVNGKTFTAPTEEEAQKIAEKLAKIAGLTVHKKNGTFELK"
OUT: criterion met

IN: hey, is folding stability dG for this one >= 0.7 kcal/mol? "TKIIVNGKTFTAPTEEEAQKIAEKLAKKAGLTVHFKNGTFELK"
OUT: criterion met

IN: hey, is folding stability dG for this one >= 0.7 kcal/mol? "TKIIVNGKTFTAPTEEEAQKIAEKLAKKAGLTVHKKNGTFENK"
OUT: criterion not met

IN: hey, is folding stability dG for this one >= 0.7 kcal/mol? "TKIIVNGKTFTAPTEKEAQKIAEKLAKKAGLTVHKKNGTFELK"
OUT: criterion met

IN: hey, is folding stability dG for this one >= 0.7 kcal/mol? "TKIIVNGKTFTAPTEEEAQKIAEKLAKKAGLTIHKKNGTFELK"
OUT: criterion met

IN: hey, is folding stability dG for this one >= 0.7 kcal/mol? "TKIIVNGKTFTAPTEEEAQKIIEKLAKKAGLTVHKKNGTFELK"
OUT: criterion not met

IN: hey, is folding stability dG for this one >= 0.7 kcal/mol? "TKIIVNGSTFTAPTEEEAQKIAEKLAKKAGLTVHKKNGTFELK"
OUT: criterion not met

IN: hey, is folding stability dG for this one >= 0.7 kcal/mol? "TKIIVNGKTFTAPTEEEAQGIAEKLAKKAGLTVHKKNGTFELK"
OUT: criterion not met

IN: hey, is folding stability dG for this one >= 0.7 kcal/mol? "TKIIVNGKTFTAPTGEEAQKIAEKLAKKAGLTVHKKNGTFELK"
OUT: criterion not met

IN: hey, is folding stability dG for this one >= 0.7 kcal/mol? "TKIIVNGKTFTAPTEEEAQKIAELLAKKAGLTVHKKNGTFELK"
OUT: criterion met

IN: hey, is folding stability dG for this one >= 0.7 kcal/mol? "TKIIVNGKTFTAPTEEEAQKNAEKLAKKAGLTVHKKNGTFELK"
OUT: criterion not met

IN: hey, is folding stability dG for this one >= 0.7 kcal/mol? "TKIIVNGKTFTAPTEEEAQKWAEKLAKKAGLTVHKKNGTFELK"
OUT: criterion met

IN: hey, is folding stability dG for this one >= 0.7 kcal/mol? "TKYIVNGKTFTAPTEEEAQKIAEKLAKKAGLTVHKKNGTFELK"
OUT: criterion not met

IN: hey, is folding stability dG for this one >= 0.7 kcal/mol? "TKIIVNGKTFTAPTEEEAQKIAEKLAKKAGLFVHKKNGTFELK"
OUT: criterion not met

IN: hey, is folding stability dG for this one >= 0.7 kcal/mol? "TKIGVNGKTFTAPTEEEAQKIAEKLAKKAGLTVHKKNGTFELK"
OUT: criterion not met

IN: hey, is folding stability dG for this one >= 0.7 kcal/mol? "TKIIVNGKTFTAPTEEEAQKIAWKLAKKAGLTVHKKNGTFELK"
OUT: criterion met

IN: hey, is folding stability dG for this one >= 0.7 kcal/mol? "TKIIVNGKTFTAPTEEEAQKIAEKLAKKAGLTNHKKNGTFELK"
OUT: criterion not met

IN: hey, is folding stability dG for this one >= 0.7 kcal/mol? "TKIIVNGKTFTAPTEEEAQKIACKLAKKAGLTVHKKNGTFELK"
OUT: criterion met

IN: hey, is folding stability dG for this one >= 0.7 kcal/mol? "TKIIVNGKTFTAPTEEEAQKIAEKLAKKAGLTVHKKNHTFELK"
OUT: criterion not met

IN: hey, is folding stability dG for this one >= 0.7 kcal/mol? "TKIIVNGKTFTAPTEEEAQKIAEKLAKKAGLTVHKKNATFELK"
OUT: criterion not met

IN: hey, is folding stability dG for this one >= 0.7 kcal/mol? "TKIIVNGKTFTAPTEEEAQKIAEVLAKKAGLTVHKKNGTFELK"
OUT: criterion met
